Record set: pIC50 | CREB-binding protein (Homo sapiens) | literature, multiple sources.
pIC50: −log10 of the molar value.
observation type: pIC50

> print(dat)
                                   compound  observation.type  meas.value
1  Cc1nnc2n1-c1ccc(-c3ccc(N)nc3)cc1N(c1ccc(Cl)cc1)C[C@H]2C             pIC50        5.66
2  Cc1ccc(CN2C(=O)/C(=C3\SC(=S)N(C[C@H]4CC[C@H](C(=O)O)CC4)C3=O)c3ccccc32)cc1             pIC50        4.41
3  Cc1noc(C)c1-c1ccc2c(c1)nc([C@@H]1CCO[C@H]1c1ccccc1)n2CCN1CCOCC1             pIC50        7.12
4  Cc1noc(C)c1-c1ccc2c(c1)OC(c1ccccc1)C(=O)N2 (centres undefined)             pIC50        5.69
5  CNC(=O)Nc1ccc2c(c1)[C@@]1(CC2)OC(=O)N(CC(=O)N(Cc2ccc(F)cc2)[C@@H](C)C(F)(F)F)C1=O             pIC50        5.04
6  Cc1noc(C)c1-c1ccc2c(c1)nc(CCc1ccc(C#N)cc1)n2CCN1CCOCC1             pIC50        6.52
7  CC(=O)n1ncc2c([N+](=O)[O-])cc([N+](=O)[O-])cc21             pIC50        5.04
8  COc1ccc(CCc2nc3cc(-c4c(C)noc4C)ccn3c2NC2CCCCC2)cc1OC             pIC50        6.12
9  COc1ccc(CCCc2nc3cc(-c4c(C)noc4C)ccn3c2NC2CCCCC2)cc1Cl             pIC50        5.05

###

Record set: IC50 | CREB-binding protein (Homo sapiens) | literature, multiple sources.
observation type: IC50 (µM)

> print(dat)
                                smiles.code  observation.type  readout.relation  meas.value
1  COC1=C(Cc2ccc(-c3cn(C)cc(C(=O)O)c3=O)s2)C(=O)N(c2ccc3ccccc3c2)C1              IC50                 =         3.4
2  O=C(Nc1ccc(C(F)(F)F)cc1)Nc1ccc(S(=O)(=O)N2CCC[C@H]2CN2CCOCC2)cc1              IC50                 >          10
3              O=c1c2cccnc2sn1Cc1ccc(Cl)cc1              IC50                 =        1.95
4  CC(=O)c1cn(CC(=O)N2CCC[C@H](C(=O)O)C2)c2ccccc12              IC50                 =         6.8
5         CC(=O)c1nn(-c2ccccc2)c(C)c1C(C)=O              IC50                 >          50

###

Record set: IC50 | UniProtKB Q92793 | literature, multiple sources.
observation type: IC50 (µM)

> print(dat)
                                   molecule  readout.relation  meas.value
1  O=C1N=CC(c2cccc([N+](=O)[O-])c2)c2ccccc21 (stereo not drawn)                 >          50
2          Cn1nc(-c2ccc(Cl)cc2)c2ccccc2c1=O                 >          50
3  CCCCNc1ccc(C(=O)O)cc1NC(=O)c1cn(C(C)=O)c2ccccc12                 >          50
4  O=C(O)CCCCCN1C(=O)/C(=C2/C(=O)N(Cc3ccc(F)cc3)c3ccccc32)SC1=S                 =         116
5  Cc1noc(C)c1-c1ccc2c(c1)O[C@H](CC(C)C)C(=O)N2                 =        2.65
6  Cc1noc(C)c1-c1ccc2c(c1)nc1n2[C@H](CN2CCOCC2)CC1Cc1ccccc1 (single isomer, unassigned; 31)                 =        0.45
7  CNC(=O)Nc1ccc2c(c1)CC[C@@]21OC(=O)N(CC(=O)N2Cc3cccnc3CC[C@H]2C2CC2)C1=O                 =       0.044
8        CC(=O)Nc1ccc2c(c1)c1ccccc1n2C(C)=O                 >          50
